Organism: Homo sapiens
METHOD: Selectivity for MMP13 over MMP2
Checkbox rule: Selectivity ratio lower than 70 = true (1); Selectivity ratio not lower than 70 = false (0).

SMILES_RECORD | LABEL_CLASS
CCOCCC1(Oc2ccc(Oc3ccc(-c4nc(-c5ccccn5)co4)cc3)cc2)C(=O)NC(=O)NC1=O | false (0)
CCOCCC1(Oc2ccc(Oc3ccc(C(=O)NCc4cccc(F)c4)cc3)cc2)C(=O)NC(=O)NC1=O | false (0)
CCOCCC1(Oc2ccc(Oc3ccc(-c4nc(-c5ccc(F)cc5)no4)cc3)cc2)C(=O)NC(=O)NC1=O | false (0)
CCOCCC1(Oc2ccc(Oc3ccc(-c4cc(-c5ccccc5)no4)cc3)cc2)C(=O)NC(=O)NC1=O | true (1)
CCOCCC1(Oc2ccc(Oc3ccc(-c4nc(-c5cccc(F)c5)co4)cc3)cc2)C(=O)NC(=O)NC1=O | false (0)
CCOCCC1(Oc2ccc(Oc3ccc(-c4ncc(-c5ccccc5)o4)cc3)cc2)C(=O)NC(=O)NC1=O | false (0)
